- System under test: Aspartate--tRNA ligase (Escherichia coli (strain K12))
- Sequence (P21889 whole entry): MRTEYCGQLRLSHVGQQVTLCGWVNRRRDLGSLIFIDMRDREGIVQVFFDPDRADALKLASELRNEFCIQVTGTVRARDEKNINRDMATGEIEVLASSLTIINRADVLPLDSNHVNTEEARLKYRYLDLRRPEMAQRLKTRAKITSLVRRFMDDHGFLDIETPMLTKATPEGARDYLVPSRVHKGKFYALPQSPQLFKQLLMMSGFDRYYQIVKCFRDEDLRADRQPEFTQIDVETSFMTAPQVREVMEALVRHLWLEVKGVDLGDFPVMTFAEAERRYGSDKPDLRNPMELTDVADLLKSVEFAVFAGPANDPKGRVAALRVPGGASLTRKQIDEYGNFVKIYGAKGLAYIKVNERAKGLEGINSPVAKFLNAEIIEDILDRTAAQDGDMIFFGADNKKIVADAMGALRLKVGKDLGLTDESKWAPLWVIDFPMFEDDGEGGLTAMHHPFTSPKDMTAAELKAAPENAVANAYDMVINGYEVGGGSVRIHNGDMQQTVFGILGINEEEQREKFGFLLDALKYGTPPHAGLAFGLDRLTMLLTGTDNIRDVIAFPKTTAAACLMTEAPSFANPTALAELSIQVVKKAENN
- Experimental details: Determination of the Inhibition Type and Constant (Ki)
- Test parameters: pH 7.5; 37 °C
Observable: Ki (nM)

>  <Molecule>
Nc1ncnc2c1ncn2[C@@H]1O[C@H](COP(=O)(O)CC(=O)C(N)CC(=O)O)[C@@H](O)[C@H]1O (stereo partly drawn)

>  <System under test>
Aspartate--tRNA ligase (Escherichia coli (strain K12))

>  <Result value>
123

$$$$
>  <Molecule>
Nc1ncnc2c1ncn2[C@@H]1O[C@H](COS(=O)(=O)NC(=O)C(N)CC(=O)O)[C@@H](O)[C@H]1O (stereo partly drawn)

>  <System under test>
Aspartate--tRNA ligase (Escherichia coli (strain K12))

>  <Result value>
15

$$$$
>  <Molecule>
Nc1ncnc2c1ncn2[C@@H]1O[C@H](COP(=O)(O)OC[C@@H](N)CC(=O)O)[C@@H](O)[C@H]1O

>  <System under test>
Aspartate--tRNA ligase (Escherichia coli (strain K12))

>  <Result value>
45000

$$$$
